B1: Twister Ribozyme (parent)
chain: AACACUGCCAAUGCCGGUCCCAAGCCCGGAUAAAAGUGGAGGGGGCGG

- Variants of: B1
- TEST: self-cleavage, relative activity (ratio to wild type); higher = more cleavage; co-transcriptional
PROPERTY: self-cleavage
Could you respond with only the numeric value?

SEQUENCE_CHANGE	VAL
A30C	0.911

Q. Item G17A C21G has what recorded self-cleavage?
A. 0.073

Q. Try the variant A1U G16C
A. 0.0739

Q. What about U12C G13A ?
A. 0.772
